Target: p-EGFR Del19/C797S (H1975-clone #23 cells) (Homo sapiens)
Experiment: Cell p-EGFR inhibition assay, HTRF, H1975-clone#23 (DEL19/C797S) cells
Format: cell-based
Conditions: 16 h treatment, maximum percentage of pEGFR inhibition
reported_endpoint: Imax (%)

COC[C@H]1CN(c2ccc3c(c2)N2C[C@@H]4CC[C@H](COc5c(cnn5C)-c5cc(cc(C)n5)C(=O)/N=C/2N3)C4)CCN1C1CCN(c2cc(F)c([C@H]3CCC(=O)NC3=O)c(F)c2)CC1 ... 101.2
Cc1cc2cc(n1)-c1c(C)nn(C)c1OC[C@H]1CC[C@H](C1)CN1/C(=N/C2=O)Nc2ccc(N3CCC(CN(C)C4CCN(c5cc(F)c([C@H]6CCC(=O)NC6=O)c(F)c5)CC4)CC3)cc21 ... 102.96
Cc1cc2cc(n1)-c1c(C)nn(C)c1OC[C@H]1CC[C@H](C1)CN1/C(=N/C2=O)Nc2ccc(N3CCN([C@H]4CCN(c5cc(F)c([C@H]6CCC(=O)NC6=O)c(F)c5)C4)CC3)cc21 (single isomer, unassigned) ... 100.56
Cc1cc2cc(n1)-c1c(C)nn(C)c1OC[C@H]1CC[C@H](C1)CN1/C(=N/C2=O)Nc2ccc(N3C[C@H](C)N(C4CCN(c5cc(F)c([C@H]6CCC(=O)NC6=O)c(F)c5)CC4)C[C@H]3C)cc21 ... 99.88

----------
Molecular target: p-EGFR Del19/C797S (H1975-clone #23 cells) (Homo sapiens)
Assay: Cell p-EGFR inhibition assay, HTRF, H1975-clone#23 (DEL19/C797S) cells
Format: cell-based
Details: 16 h treatment, maximum percentage of pEGFR inhibition
reported_endpoint: Imax (%)

Cc1cc2cc(n1)-c1c(C)nn(C)c1OC[C@H]1CC[C@H](C1)CN1/C(=N/C2=O)Nc2ccc(N3CCN(C4CCN(c5cc(F)c([C@H]6CCC(=O)NC6=O)c(F)c5)CC4)C(=O)C3)cc21 ... 96.95
Cc1cc2cc(n1)-c1cnn(C)c1OC[C@H]1CCC(C1)CN1/C(=N/C2=O)Nc2ccc(N3CCN(CCc4cc(F)c(C5CCC(=O)NC5=O)nc4C)CC3)cc21 (stereo partly shown) ... 100.6
Cc1cc2cc(n1)-c1c(C)nn(C)c1OC[C@H]1CC[C@H](C1)CN1/C(=N/C2=O)Nc2ccc(N3CCN(CC4CN(c5cc(F)c([C@H]6CCC(=O)NC6=O)c(F)c5)C4)CC3)cc21 ... 102.91
Cc1cc2cc(n1)-c1c(C)nn(C)c1OC[C@H]1CC[C@H](C1)CN1/C(=N/C2=O)Nc2ccc(N3CCN(C4CCN(c5cc(F)c([C@H]6CCC(=O)NC6=O)c(F)c5)CC4)[C@@H](CC#N)C3)cc21 ... 96.05
COC[C@@H]1CN(c2ccc3c(c2)N2CC4CC[C@H](COc5c(c(C)nn5C)-c5cc(cc(C)n5)C(=O)/N=C/2N3)C4)CCN1C1CCN(c2c(F)cc(NC3CCC(=O)NC3=O)cc2F)CC1 (stereo partly shown) ... 99.55
Cc1cc2cc(n1)-c1c(C)nn(C)c1OC[C@H]1CC[C@H](C1)CN1/C(=N/C2=O)Nc2ccc(N3CCN(C4CCN(c5cc(F)c([C@H]6CCC(=O)NC6=O)c(F)c5)CC4)C[C@H]3CF)cc21 ... 100.52
Cc1cc2cc(n1)-c1cnn(C)c1OC[C@H]1CCC(C1)CN1/C(=N/C2=O)Nc2ccc(N3CCC(CN4CCC(Nc5cc(F)c([C@H]6CCC(=O)NC6=O)c(F)c5)CC4)CC3)cc21 ... 103.08
COC[C@@H]1CN(c2cc3c(cc2F)N/C2=N\C(=O)c4cc(C)nc(c4)-c4cnn(C)c4OC[C@H]4CCC(C4)CN23)CCN1C1CCN(c2cc(F)c([C@H]3CCC(=O)NC3=O)c(F)c2)CC1 ... 100.3
Cc1cc2cc(n1)-c1c(C)nn(C)c1OC[C@H]1CC[C@H](C1)CN1/C(=N/C2=O)Nc2ccc(N3CCC(NC4CN(c5c(F)cc(OC6CCC(=O)NC6=O)cc5F)C4)CC3)cc21 (stereo partly shown) ... 100.46
COC[C@H]1CN(c2ccc3c(c2)N2CC4CC[C@H](COc5c(c(C)nn5C)-c5cc(cc(C)n5)C(=O)/N=C/2N3)C4)CCN1C1CCN(c2cc(F)c([C@H]3CCC(=O)NC3=O)c(F)c2)CC1 ... 100.8
Cc1nn(C)c2c1-c1cc(cc(Cl)n1)C(=O)/N=C1\Nc3ccc(N4CCN(C5CCN(c6cc(F)c([C@H]7CCC(=O)NC7=O)c(F)c6)CC5)CC4)cc3N1C[C@@H]1CC[C@H](CO2)C1 ... 100.7
COC[C@H]1CN(c2ccc3c(c2)N2C[C@@H]4CC[C@H](COc5c(cnn5C)-c5cc(cc(C)n5)C(=O)/N=C/2N3)C4)CCN1C1CN(C2CCN(c3cc(F)c([C@H]4CCC(=O)NC4=O)c(F)c3)CC2)C1 ... 99.76
COC[C@H]1CN(c2ccc3c(c2)N2CC4CC[C@H](COc5c(c(C)nn5C)-c5cc(cc(C)n5)C(=O)/N=C/2N3)C4)CCN1C1CCN(c2cc(F)c(C3CCC(=O)NC3=O)nc2C)CC1 (stereo partly shown) ... 101.7
Cc1cc2cc(n1)-c1c(C)nn(C)c1OC[C@H]1CC[C@H](C1)CN1/C(=N/C2=O)Nc2ccc(N3C[C@@H](C)N(C4CCN(c5cc(F)c([C@H]6CCC(=O)NC6=O)c(F)c5)CC4)C[C@@H]3C)cc21 ... 102.89
Cc1cc2cc(n1)-c1c(C)nn(C)c1OC[C@H]1CC[C@H](C1)CN1/C(=N/C2=O)Nc2ccc(N3CCN(CCC4CCN(c5cc(F)c([C@H]6CCC(=O)NC6=O)c(F)c5)CC4)CC3)cc21 ... 99.41
COC[C@@H]1CN(c2ccc3c(c2)N2C[C@@H]4CC[C@H](COc5c(c(C)nn5C)-c5cc(cc(C)n5)C(=O)/N=C/2N3)C4)CCN1C1CCN(c2cc(F)c(C3CCC(=O)NC3=O)nc2C)CC1 (stereo partly shown) ... 101.2
Cc1cc2cc(n1)-c1cnn(C)c1OC[C@H]1CCC(C1)CN1/C(=N/C2=O)Nc2ccc(N3CCC(N4CCC(Oc5cc(F)c([C@H]6CCC(=O)NC6=O)c(F)c5)CC4)CC3)cc21 ... 99
COC[C@@H]1CN(c2ccc3c(c2)N2C[C@@H]4CC[C@H](COc5c(cnn5C)-c5cc(cc(C)n5)C(=O)/N=C/2N3)C4)CCN1CC1CN(c2ccc3c(c2)CN(C2CCC(=O)NC2=O)C3=O)C1 (stereo partly shown) ... 100.6
COC[C@@H]1CN(c2ccc3c(c2)N2CC4CC[C@H](COc5c(cnn5C)-c5cc(cc(C)n5)C(=O)/N=C/2N3)C4)CCN1C1CCN(c2ccc(C3CCC(=O)NC3=O)nc2C)CC1 (stereo partly shown) ... 101.1
